Experiment: Viability of fibroblast cells, MTT assay
Format: cell-based, Human
Details: human, primary dermal fibroblast cells; 1 µmol/L, 24 h, MTT; ± 2; read-out: Viability of fibroblast cells
Residues, ends and D or L forms follow the SMILES beside them.
propertyName: viability at 24 h, 1 µmol/L (%)
Give the number; % is assumed, so skip it.

Worked examples, 5 compounds total:
compound	viability at 24 h, 1 µmol/L [%]
CCCCCCCCCCCCCCCC(=O)N[C@@H](CCCCN)C(=O)N[C@H](C(=O)N[C@H](C(=O)N[C@@H](CCCCN)C(=O)N[C@@H](CO)C(N)=O)[C@@H](C)O)[C@@H](C)O [Peptide 8, Pal-Lys-Thr-Thr-Lys-Ser-NH2] (HELM PEPTIDE1{[CCCCCCCCCCCCCCCC(=O)[*:2]].K.T.T.K.S.[am]}$$$$V2.0)	96
C[C@@H](O)[C@H](NC(=O)[C@H](CCCNC(=N)N)NC(=O)CCCCC1CCSS1)C(=O)N[C@H](C(=O)N[C@@H](CCCNC(=N)N)C(=O)N[C@@H](CO)C(=O)O)[C@@H](C)O (mixture of isomers) [Peptide 19, Lip-Arg-Thr-Thr-Arg-Ser-OH]	79
CCCCCCCCCCCCCCCC(=O)N[C@@H](CCCNC(=N)N)C(=O)N[C@H](C(=O)N[C@H](C(=O)N[C@@H](CCCCN)C(=O)N[C@@H](CO)C(=O)O)[C@@H](C)O)[C@@H](C)O [Peptide 28, Pal-Arg-Thr-Thr-Lys-Ser-OH] (HELM PEPTIDE1{[CCCCCCCCCCCCCCCC(=O)[*:2]].R.T.T.K.S}$$$$V2.0)	104
CCCCCCCCCCCCCCCC(=O)N[C@@H](CCCNC(=N)N)C(=O)N[C@H](C(=O)N[C@H](C(=O)N[C@@H](CCCNC(=N)N)C(=O)N[C@@H](CO)C(N)=O)[C@@H](C)O)[C@@H](C)O [Peptide 24, Pal-Arg-Thr-Thr-Arg-Ser-NH2] (HELM PEPTIDE1{[CCCCCCCCCCCCCCCC(=O)[*:2]].R.T.T.R.S.[am]}$$$$V2.0)	94
CCCCCCCCCCCCCCCC(=O)N[C@@H](CCCNC(=N)N)C(=O)N[C@H](C(=O)N[C@H](C(=O)N[C@@H](CCCNC(=N)N)C(=O)N[C@@H](CO)C(=O)O)[C@@H](C)O)[C@@H](C)O [Peptide 20, Pal-Arg-Thr-Thr-Arg-Ser-OH] (HELM PEPTIDE1{[CCCCCCCCCCCCCCCC(=O)[*:2]].R.T.T.R.S}$$$$V2.0)	90

# input Need viability at 24 h, 1 µmol/L of C[C@@H](O)[C@H](NC(=O)[C@H](CCCNC(=N)N)NC(=O)CCCCC1CCSS1)C(=O)N[C@H](C(=O)N[C@@H](CCCCN)C(=O)N[C@@H](CO)C(N)=O)[C@@H](C)O (mixture of isomers) [Peptide 31, Lip-Arg-Thr-Thr-Lys-Ser- NH2] , thanks.
# output 107

# input Need viability at 24 h, 1 µmol/L of CCCCCCCCCCCCCCCC(=O)N[C@@H](CCCCN)C(=O)N[C@H](C(=O)N[C@H](C(=O)N[C@@H](CCCCN)C(=O)N[C@@H](CO)C(=O)O)[C@@H](C)O)[C@@H](C)O [Peptide 4, Pal-Lys-Thr-Thr-Lys-Ser-OH, reference compound] (HELM PEPTIDE1{[CCCCCCCCCCCCCCCC(=O)[*:2]].K.T.T.K.S}$$$$V2.0) , thanks.
# output 97
